Can you tell me cytotoxicity at 10 µM for the items I'm about to list?
# PROCEDURE TEXT: Toxicity liver stage against HepG2, at 10uM
# Format: cell-based
# Design: test concentration 10 uM, cell line HepG2-A16-CD81EGFP
# EXPERIMENTAL CONDITIONS: human, HepG2-A16-CD81EGFP cells; read-out: INHIBITION
# number only, unit % dropped from output

Exercise: Query cytotoxicity at 10 µM for `O=C(NCc1ccc(N2CC=CC2)cc1)Nc1nnc(C2CC2)s1`
Key: 7.25

Exercise: Query cytotoxicity at 10 µM for `COc1ccc(-c2nnc(SCC(=O)NCC(C)C)[nH]2)c(OC)c1`
Key: -6.73

Exercise: Query cytotoxicity at 10 µM for CC(C)c1n[nH]c(C2CN(C(=O)c3cccc4cn[nH]c34)CCO2)n1 (stereo not drawn)
Key: -5.31

Exercise: Query cytotoxicity at 10 µM for `Cc1nn(C)c2c(NCc3cccnc3)nc(C3CC3)nc12`
Key: -9.84

Exercise: Query cytotoxicity at 10 µM for O=C(Cc1ccccc1)N1CC(=O)N(Cc2ccco2)CC(O)C1 (stereo not drawn)
Key: -4.05

Exercise: Query cytotoxicity at 10 µM for `CN(Cc1cn2c(n1)CN(C(=O)CC1CC1)CC2)Cc1ccco1`
Key: -2.21

Exercise: Query cytotoxicity at 10 µM for `Cc1cccc(CN2CCc3cc(C(=O)O)c(N(C)C)nc3CC2)n1`
Key: 3.68

Exercise: Query cytotoxicity at 10 µM for CC(C)C(NC(=O)c1nc(N2CCOCC2)ncc1Cl)c1cccs1 (stereo not drawn)
Key: -44.3

Exercise: Query cytotoxicity at 10 µM for `CS(=O)(=O)N1C[C@H]2CC[C@@H](C1)N(C/C=C/c1ccc(F)cc1)C2`
Key: -15.5

Exercise: Query cytotoxicity at 10 µM for `COCCS(=O)(=O)c1ncc(CN(C)C)n1Cc1ccccc1`
Key: 3.19

Exercise: Query cytotoxicity at 10 µM for COCCCN1CCCN(C(C)C(=O)Nc2cccc(I)c2)CC1 (stereo not drawn)
Key: -8.34

Exercise: Query cytotoxicity at 10 µM for Cc1cc(C)nc(Nc2ccc(C3CCCCN3)cn2)n1 (stereo not drawn)
Key: 11.7

Exercise: Query cytotoxicity at 10 µM for `CC(C)c1cc(C(=O)NCc2nc(-c3ccc(F)cc3)n[nH]2)n[nH]1`
Key: -1.75

Exercise: Query cytotoxicity at 10 µM for `CCn1nc(C)c(CN(CCCN(C)C)Cc2ccccn2)c1C`
Key: 1.62

Exercise: Query cytotoxicity at 10 µM for `CC(=O)N1[C@H](Cn2cncn2)C[C@@H]2CN(Cc3ccccn3)CC[C@@H]21`
Key: 0.732

Exercise: Query cytotoxicity at 10 µM for CC(C)CNC(=O)C1(Cc2ccccc2-c2ccccc2)CCNC1 (stereo not drawn)
Key: -17.8

Exercise: Query cytotoxicity at 10 µM for CCNC(=O)C1CCN(c2nc(-c3ccco3)nc3c2CCNCC3)C1 (stereo not drawn)
Key: -5.87

Exercise: Query cytotoxicity at 10 µM for `O=c1cc2c(nn1CN1CCN(c3ccc(F)cc3)CC1)CCC2`
Key: -2.15

Exercise: Query cytotoxicity at 10 µM for COc1ccc(C(C)CCNC2CCN(c3ccccn3)CC2)cc1 (stereo not drawn)
Key: 5.29

Exercise: Query cytotoxicity at 10 µM for `Cc1cccc(NC2CCN(C(=O)Nc3ccncc3)CC2)n1`
Key: -17.1

Exercise: Query cytotoxicity at 10 µM for CC(CNC(=O)c1cnccn1)Oc1ccc(F)cc1 (stereo not drawn)
Key: -2.55

Exercise: Query cytotoxicity at 10 µM for `COc1ccc(CNC(=O)CCCc2nnc3ccc(OC)nn23)cc1`
Key: -5.36

Exercise: Query cytotoxicity at 10 µM for `Cc1n[nH]c(C)c1CCc1n[nH]c(=O)n1Cc1cccs1`
Key: -146
